// reported protein stability index for each item listed
B1: KCNAB2 (parent)
chain: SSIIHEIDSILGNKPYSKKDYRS

# Variants of: B1
# protocol_description: protein stability index of a GFP-peptide fusion (GPS, HEK-293T) (PSI 1-6); higher = more stable;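 further: lentivirally expressed fusions sorted by FACS into six bins by GFP to DsRed ratio, PSI derived from sequencing read proportions per bin multiplied by bin number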
# conditions_used: c terminus: native
Number only, please.

Quick one: protein stability index for I3H ?
4
